Target: PDE3A (Homo sapiens, UniProt Q14432)
Sequence (Q14432 whole entry): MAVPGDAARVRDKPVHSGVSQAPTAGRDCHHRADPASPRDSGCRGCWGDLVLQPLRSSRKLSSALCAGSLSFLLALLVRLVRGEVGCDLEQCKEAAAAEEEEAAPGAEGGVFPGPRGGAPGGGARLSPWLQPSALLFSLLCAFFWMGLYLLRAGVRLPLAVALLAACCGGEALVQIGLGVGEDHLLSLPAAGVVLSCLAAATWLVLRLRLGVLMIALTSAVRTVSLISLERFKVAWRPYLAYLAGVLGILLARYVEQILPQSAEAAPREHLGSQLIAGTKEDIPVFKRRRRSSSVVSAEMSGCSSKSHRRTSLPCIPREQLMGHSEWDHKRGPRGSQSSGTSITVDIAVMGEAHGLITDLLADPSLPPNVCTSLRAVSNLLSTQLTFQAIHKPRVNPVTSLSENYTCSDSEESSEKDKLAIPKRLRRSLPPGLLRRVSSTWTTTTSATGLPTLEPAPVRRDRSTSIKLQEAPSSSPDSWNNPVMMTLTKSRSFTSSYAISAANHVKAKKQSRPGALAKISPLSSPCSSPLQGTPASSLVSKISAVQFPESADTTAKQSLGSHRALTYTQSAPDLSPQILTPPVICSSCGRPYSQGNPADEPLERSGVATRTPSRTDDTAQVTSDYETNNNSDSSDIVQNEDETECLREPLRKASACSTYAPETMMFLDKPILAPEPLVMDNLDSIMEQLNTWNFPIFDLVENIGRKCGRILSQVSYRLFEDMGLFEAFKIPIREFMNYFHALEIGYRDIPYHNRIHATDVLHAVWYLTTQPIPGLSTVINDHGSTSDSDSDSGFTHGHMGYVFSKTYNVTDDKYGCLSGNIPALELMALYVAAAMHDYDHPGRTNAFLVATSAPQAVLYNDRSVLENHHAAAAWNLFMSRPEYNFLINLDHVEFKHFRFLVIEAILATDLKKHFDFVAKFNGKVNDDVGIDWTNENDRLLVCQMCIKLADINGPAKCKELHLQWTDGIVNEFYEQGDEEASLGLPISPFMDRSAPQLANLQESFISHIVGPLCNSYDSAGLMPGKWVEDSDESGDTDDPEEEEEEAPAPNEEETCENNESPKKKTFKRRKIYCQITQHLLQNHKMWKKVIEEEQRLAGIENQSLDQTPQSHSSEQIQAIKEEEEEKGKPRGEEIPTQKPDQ
Measured Parameter: IC50

Suppose we examine the compound CN1CC(=O)N2[C@H](c3ccc4c(c3)OCO4)c3[nH]c4ccccc4c3C[C@@H]2C1=O ; what IC50 value has been reported?
> 10 µM

====

Test Method Notes: Study on pharmacokinetics in rats, oral administration
Assay type: in vivo, SD rat
Run Conditions: SD, rat, plasma, po, 10 mg/kg, Mean of 3 rats; oral 10.0 mg · kg^−1
Method: Sample Preparation Method: One step protein precipitation Precipitant: ACN, with concentration of Verapamil (5.00 ng·mL-1) Calibration Curve and QC samples Preparation: 5.00 μL each of the calibration or QC working solution and 45.0 μL of blank plasma were transferred into a 1.5-mL microcentrifuge tube. Final standard curve concentration levels were 1.00, 2.50, 5.00, 10.0, 50.0, 100, 500 and 1000 ng·mL-1. The QC concentration levels were 2.50 or 5.00, 50.0 and 800 ng·mL-1. […]
The molecules listed here are annotated with their half-life.
# number only, unit h dropped from output

Known half-life results, listed for orientation:
NN1CC(=O)N2[C@H](c3ccc4c(c3)OCO4)c3[nH]c4ccccc4c3C[C@@H]2C1=O
3.73
[2H]C1([2H])Oc2ccc([C@@H]3c4[nH]c5ccccc5c4C[C@@H]4C(=O)N(N)CC(=O)N34)cc2O1
2.29

Please find the next molecule below.
Suppose we examine the molecule CN1CC(=O)N2[C@H](c3ccc4c(c3)OCO4)c3[nH]c4ccccc4c3C[C@@H]2C1=O ; what half-life value has been reported?
2.99

====

Test Method Notes: Study on pharmacokinetics in rats, oral administration
Type: in vivo, SD rat
Run Conditions: SD, rat, plasma, po, 10 mg/kg, Mean of 3 rats; oral 10.0 mg · kg^−1; read-out: AUC0-inf
Measured Parameter: AUC0-inf (ng·h/mL)
# number only, unit ng·h/mL dropped from output

Suppose we examine the compound NN1CC(=O)N2[C@H](c3ccc4c(c3)OCO4)c3[nH]c4ccccc4c3C[C@@H]2C1=O ; what AUC0-inf value has been reported?
16300

Subsequent entry: [2H]C1([2H])Oc2ccc([C@@H]3c4[nH]c5ccccc5c4C[C@@H]4C(=O)N(N)CC(=O)N34)cc2O1
10800

Subsequent entry: CN1CC(=O)N2[C@H](c3ccc4c(c3)OCO4)c3[nH]c4ccccc4c3C[C@@H]2C1=O
8860

Just for reference, patent US9920057B2 is where these values come from.
